Reference for the values: patent US10703756B2

Target: JAK3 enzyme (Homo sapiens, UniProt P52333)
Sequence (P52333 whole entry, species assumed): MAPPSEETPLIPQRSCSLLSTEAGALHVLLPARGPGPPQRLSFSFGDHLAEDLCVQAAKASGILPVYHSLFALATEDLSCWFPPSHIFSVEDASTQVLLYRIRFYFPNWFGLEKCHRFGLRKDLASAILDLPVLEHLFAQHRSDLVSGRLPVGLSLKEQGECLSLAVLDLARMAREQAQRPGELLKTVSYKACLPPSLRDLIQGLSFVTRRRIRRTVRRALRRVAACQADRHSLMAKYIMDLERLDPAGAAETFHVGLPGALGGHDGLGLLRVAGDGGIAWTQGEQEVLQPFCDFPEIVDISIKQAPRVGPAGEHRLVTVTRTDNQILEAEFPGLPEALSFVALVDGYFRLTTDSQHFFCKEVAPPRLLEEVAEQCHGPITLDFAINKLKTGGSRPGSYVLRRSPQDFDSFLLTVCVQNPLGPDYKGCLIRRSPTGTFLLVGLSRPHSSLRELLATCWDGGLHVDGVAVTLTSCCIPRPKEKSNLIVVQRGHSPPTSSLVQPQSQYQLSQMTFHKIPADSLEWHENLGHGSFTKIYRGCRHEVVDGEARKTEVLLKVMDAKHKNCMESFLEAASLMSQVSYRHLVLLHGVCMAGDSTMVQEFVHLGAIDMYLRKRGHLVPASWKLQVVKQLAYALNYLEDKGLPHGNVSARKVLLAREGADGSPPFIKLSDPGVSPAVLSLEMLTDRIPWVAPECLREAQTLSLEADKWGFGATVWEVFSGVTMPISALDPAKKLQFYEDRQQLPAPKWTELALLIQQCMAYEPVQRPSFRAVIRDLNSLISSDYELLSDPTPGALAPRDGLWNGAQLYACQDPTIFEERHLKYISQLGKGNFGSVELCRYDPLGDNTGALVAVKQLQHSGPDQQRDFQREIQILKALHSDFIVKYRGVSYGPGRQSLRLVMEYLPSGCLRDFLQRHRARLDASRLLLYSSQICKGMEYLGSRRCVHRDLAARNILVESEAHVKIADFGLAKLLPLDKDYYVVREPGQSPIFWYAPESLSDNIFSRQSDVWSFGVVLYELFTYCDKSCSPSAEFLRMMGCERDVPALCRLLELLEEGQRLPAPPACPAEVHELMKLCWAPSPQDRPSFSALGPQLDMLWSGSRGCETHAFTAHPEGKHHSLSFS
Test: JAK Caliper Enzyme Assay at 1 mM ATP
Type: biochemical
Description: Test article was solubilized in dimethyl sulfoxide (DMSO) to a stock concentration of 30 mM. An 11-point half log dilution series was created in DMSO with a top concentration of 600 μM. […] Test article and assay controls were added to a 384-well plate. […] Enzyme concentrations and incubation times were optimized for each new enzyme preps and were modified slightly over time to ensure 20%-30% phosphorylation. […]
pIC50: −log10 of the molar value.
I would appreciate it if you labelled entries MET when pIC50 is 6 or higher, otherwise NOT MET.

Please review the following examples before continuing.
compound: C=CC(=O)N1CCC(Oc2cnc3[nH]cc(C(=O)NCC4(O)CCCC4)c3n2)CC1 (racemic)
cat: MET

compound: C=CC(=O)N1CC[C@@H](Oc2cnc3[nH]cc(C(=O)N[C@@H](C)COC)c3n2)C1
cat: NOT MET

compound: C=CC(=O)N1CC[C@@H](Nc2cnc3[nH]cc(C(=O)NCC)c3n2)[C@H](OC)C1 (single isomer, unassigned) [Example 26]
cat: MET

compound: C=CC(=O)N1CC[C@H](Nc2cnc3[nH]cc(C(=O)NCC)c3n2)[C@@H](O)C1 (racemic) [Example 31]
cat: MET

compound: C=CC(=O)N1CC(Nc2cnc3[nH]cc(C(=O)NCC(C)C)c3n2)C2(CC2)C1 (stereo not drawn)
cat: NOT MET

Request: Please indicate if the recorded pIC50 for C=CC(=O)N1CC[C@@H](Nc2cnc3[nH]cc(C(=O)NCC4CCCC4)c3n2)[C@@H](OC)C1 meets or exceeds 6.
Result: MET

Request: C=CC(=O)N1CCN(c2cnc3[nH]cc(C(=O)NC4COCc5ccccc54)c3n2)CC1(C)C (racemic)
Result: MET

Request: C=CC(=O)N1CCC(Nc2cnc3[nH]cc(C(=O)NCc4ccccc4F)c3n2)CC1
Result: MET

Request: C=CC(=O)N1CCN(c2cnc3[nH]cc(C(=O)NCC(C)C)c3n2)C[C@@H]1CC(C)C
Result: MET

Request: C=CC(=O)N1CC[C@H](Nc2cnc3[nH]cc(C(=O)N[C@@H](C)COC)c3n2)C[C@@H]1C (racemic) [Example 353]
Result: MET

Request: C=CC(=O)N1CCC(C)(Nc2cnc3[nH]cc(C(=O)NCC(C)C)c3n2)CC1
Result: MET

Request: C=CC(=O)N1CCC(Oc2cnc3[nH]cc(C#N)c3n2)CC1
Result: NOT MET

###

assay: Stability of JAK3 Covalent Inhibitors in Human Whole Blood; assay type: in vitro ADME; settings: both sexes, 1 μM test compound, 37° C., 180 min incubation, read-out: Human blood stability t1/2
readout type: half-life at 1 μM (h)
Numbers only, in h.

compound: C=CC(=O)N1CC[C@H](Oc2cnc3[nH]cc(C(=O)N[C@@H](C)COC)c3n2)C[C@H]1C (single isomer, unassigned)
numeric readout: 2.77

Would you mind listing half-life at 1 μM for each of the following compounds?
1. C=CC(=O)N1C[C@@H](Nc2ncnc3[nH]ccc23)CC[C@@H]1[C@@H](C)O (single isomer, unassigned)
2. C=CC(=O)N1CCC(Nc2cnc3[nH]cc(C(=O)NCCCC(F)(F)F)c3n2)C1 (stereo in doubt)

Result:
2.87
4.32
